All figures here come from patent US12599136B2.

- System: Setaria viridis
- ASSAY METHOD TEXT: Post-emergence herbicidal action against SETVI
- Format: in vivo
- MEASUREMENT SETUP: 5 g/ha, visual assessment about 3 weeks after treatment
MEASURED PARAMETER: Post-emergence action against SETVI in % (%)
Could you give me the number in %? Just the number is fine.

Q: Item under review: `CCN(C(=O)c1c(C(F)F)ccc(C(=O)Nc2nnnn2CC)c1Cl)C1CC1` . Reported Post-emergence action against SETVI in %?
A: 90

Q: Item under review: `CN(C)C(=O)c1c(C(F)(F)F)ccc(C(=O)Nc2nnnn2C)c1Cl` . Reported Post-emergence action against SETVI in %?
A: 100

Q: Item under review: `CCN(C)C(=O)c1c(C(F)F)ccc(C(=O)Nc2nnnn2CC)c1Cl` . Reported Post-emergence action against SETVI in %?
A: 80

Q: Item under review: `CCn1nnnc1NC(=O)c1ccc(C(F)(F)F)c(C(=O)N(C)C2CC2)c1C` . Reported Post-emergence action against SETVI in %?
A: 80

Q: Item under review: `CN(CC(F)F)C(=O)c1c(C(F)F)ccc(C(=O)Nc2nnnn2C)c1Cl` . Reported Post-emergence action against SETVI in %?
A: 100

Q: Item under review: `CCN(CC)C(=O)c1c(C(F)F)ccc(C(=O)Nc2nnnn2CC)c1Cl` . Reported Post-emergence action against SETVI in %?
A: 90

Q: Item under review: `CCn1nnnc1NC(=O)c1ccc(C(F)(F)F)c(C(=O)N(C)CC2CC2)c1Cl` . Reported Post-emergence action against SETVI in %?
A: 100

Q: Item under review: `CN(C(=O)c1c(C(F)F)ccc(C(=O)Nc2nnnn2C)c1Cl)C1CC1` . Reported Post-emergence action against SETVI in %?
A: 90

Q: Item under review: `CCN(C)C(=O)c1c(C(F)F)ccc(C(=O)Nc2nnnn2CC)c1C` . Reported Post-emergence action against SETVI in %?
A: 80

Q: Item under review: `CCN(CC)C(=O)c1c(C(F)F)ccc(C(=O)Nc2nnnn2C)c1C` . Reported Post-emergence action against SETVI in %?
A: 90

Q: Item under review: `Cc1c(C(=O)Nc2nnnn2C)ccc(C(F)(F)F)c1C(=O)N(C)C` . Reported Post-emergence action against SETVI in %?
A: 100

Q: Item under review: `CN(C)C(=O)c1c(C(F)F)ccc(C(=O)Nc2nnnn2C)c1Cl` . Reported Post-emergence action against SETVI in %?
A: 100

Q: Item under review: `CCn1nnnc1NC(=O)c1ccc(C(F)F)c(C(=O)N(C)C)c1Cl` . Reported Post-emergence action against SETVI in %?
A: 90

Q: Item under review: `CCn1nnnc1NC(=O)c1ccc(Br)c(C(=O)N(C)C)c1Cl` . Reported Post-emergence action against SETVI in %?
A: 100

Q: Item under review: `CCN(CC)C(=O)c1c(C(F)(F)F)ccc(C(=O)Nc2nnnn2CC)c1C` . Reported Post-emergence action against SETVI in %?
A: 80

Q: Item under review: `CCN(CC)C(=O)c1c(Br)ccc(C(=O)Nc2nnnn2C)c1Cl` . Reported Post-emergence action against SETVI in %?
A: 80

Q: Item under review: `CCn1nnnc1NC(=O)c1ccc(C(F)(F)F)c(C(=O)N(C)C)c1C` . Reported Post-emergence action against SETVI in %?
A: 80

Q: Item under review: `CCN(C)C(=O)c1c(C(F)(F)F)ccc(C(=O)Nc2nnnn2CC)c1Cl` . Reported Post-emergence action against SETVI in %?
A: 100

Q: Item under review: `CN(CC1CC1)C(=O)c1c(C(F)(F)F)ccc(C(=O)Nc2nnnn2C)c1Cl` . Reported Post-emergence action against SETVI in %?
A: 100

Q: Item under review: `CCN(C)C(=O)c1c(Br)ccc(C(=O)Nc2nnnn2C)c1Cl` . Reported Post-emergence action against SETVI in %?
A: 100

Q: Item under review: `CCN(C)C(=O)c1c(C(F)(F)F)ccc(C(=O)Nc2nnnn2C)c1Cl` . Reported Post-emergence action against SETVI in %?
A: 100

Q: Item under review: `CCN(CC)C(=O)c1c(C(F)(F)F)ccc(C(=O)Nc2nnnn2C)c1C` . Reported Post-emergence action against SETVI in %?
A: 90

Q: Item under review: `CCN(C)C(=O)c1c(C(F)F)ccc(C(=O)Nc2nnnn2C)c1C` . Reported Post-emergence action against SETVI in %?
A: 80

Q: Item under review: `CCN(C)C(=O)c1c(C(F)F)ccc(C(=O)Nc2nnnn2C)c1Cl` . Reported Post-emergence action against SETVI in %?
A: 80
